# Experimental target: T1, biotin-labeled CD47 extracellular domain protein (CD47-ECD) (UniProt Q08722 19-139, limits assumed, biotin-labeled (sites not given))
# T1 construct: extracellular domain; also called CD47 protein
# T1 sequence (Q08722 19-139 limits assumed): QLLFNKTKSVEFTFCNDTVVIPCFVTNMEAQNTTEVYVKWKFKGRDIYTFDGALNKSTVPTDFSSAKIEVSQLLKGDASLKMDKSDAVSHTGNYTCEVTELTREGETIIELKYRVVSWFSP
# Test: blocking ELISA, biotin-CD47-ECD on coated SIRPα-hFc; Ab 40 nM
Quantity kind: OD450 nm of CD47 bound to SIRPα
Answers are plain numbers.

{"Binder": "132D1E5 (antibody, V domains shown, Murine hybridoma antibody purified on protein G) VH: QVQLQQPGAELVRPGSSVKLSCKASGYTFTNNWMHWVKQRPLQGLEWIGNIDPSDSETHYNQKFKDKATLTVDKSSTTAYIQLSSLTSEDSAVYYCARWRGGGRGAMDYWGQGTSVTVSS VL: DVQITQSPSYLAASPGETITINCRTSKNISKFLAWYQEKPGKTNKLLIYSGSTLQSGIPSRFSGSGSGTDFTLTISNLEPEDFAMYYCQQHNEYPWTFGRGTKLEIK", "OD450 nm of CD47 bound to SIRPα": 0.08}
{"Binder": "54G8G6 (antibody, V domains shown, Murine hybridoma antibody purified on protein G) VH: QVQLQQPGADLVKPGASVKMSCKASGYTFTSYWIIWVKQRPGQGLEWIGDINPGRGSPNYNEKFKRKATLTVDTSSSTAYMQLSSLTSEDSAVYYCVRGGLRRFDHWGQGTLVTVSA VL: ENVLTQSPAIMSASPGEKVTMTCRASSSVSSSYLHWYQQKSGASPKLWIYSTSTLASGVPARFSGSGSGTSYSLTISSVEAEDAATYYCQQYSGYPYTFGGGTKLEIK", "OD450 nm of CD47 bound to SIRPα": 0.06}
{"Binder": "25E3B5 (antibody, V domains shown, Murine hybridoma antibody purified on protein G) VH: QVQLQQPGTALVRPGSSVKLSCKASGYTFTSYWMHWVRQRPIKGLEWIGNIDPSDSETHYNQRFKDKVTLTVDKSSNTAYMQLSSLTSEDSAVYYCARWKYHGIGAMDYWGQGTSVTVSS VL: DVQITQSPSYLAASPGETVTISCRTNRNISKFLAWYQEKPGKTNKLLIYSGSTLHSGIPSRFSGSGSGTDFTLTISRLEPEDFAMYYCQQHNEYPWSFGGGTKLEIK", "OD450 nm of CD47 bound to SIRPα": 0.06}

Now let's try a different one.
q: So what does the record say about OD450 nm of CD47 bound to SIRPα for 51E2F11 (antibody, V domains shown, Murine hybridoma antibody purified on protein G) VH: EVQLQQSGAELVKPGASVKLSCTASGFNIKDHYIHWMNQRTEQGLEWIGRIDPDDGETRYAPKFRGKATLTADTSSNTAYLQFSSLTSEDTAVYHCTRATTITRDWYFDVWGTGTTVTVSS VL: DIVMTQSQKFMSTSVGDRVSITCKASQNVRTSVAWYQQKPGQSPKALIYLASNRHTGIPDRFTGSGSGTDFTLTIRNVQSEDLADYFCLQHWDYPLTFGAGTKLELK ?
a: 0.08

The measured values listed here are drawn from patent US20220017615A1.
